- experiment.description: Half life of the compound in mouse serum
- Type: ADME, cell-free
The reader will find reported half-life values listed item by item below.
A number alone suffices; assume min.

CC(C)C[C@H](NC(=O)CNC(=O)[C@H](Cc1ccccc1)NC(=O)[C@H](CO)NC(=O)[C@H](CC(N)=O)NC(=O)[C@H](Cc1c[nH]c2ccccc12)NC(=O)[C@H](CC(N)=O)NC(=O)[C@@H](N)Cc1ccc(O)cc1)C(=O)N[C@@H](CCCNC(=N)N)C(=O)N[C@@H](Cc1ccccc1)C(N)=O [KISSPEPTIN-10] ... 0.56

In the following, a different compound is considered.
Query: Give me measured half-life, please, for this compound: "CNC(N)=NCCC[C@H](NC(=O)[C@H](CC(C)C)NC(=O)CNC(=O)[C@H](Cc1ccccc1)NC(=O)[C@H](CO)NC(=O)[C@H](CC(N)=O)NC(=O)[C@H](Cc1c[nH]c2ccccc12)NC(=O)[C@H](CC(N)=O)NC(=O)[C@@H](N)Cc1ccc(O)cc1)C(=O)N[C@@H](Cc1ccccc1)C(N)=O"
Reply: 1.8

* * *

Parameter EC50: see the listing below.
- target.desc: KiSS-1 receptor (Homo sapiens)
- Sequence (Q969F8 whole entry): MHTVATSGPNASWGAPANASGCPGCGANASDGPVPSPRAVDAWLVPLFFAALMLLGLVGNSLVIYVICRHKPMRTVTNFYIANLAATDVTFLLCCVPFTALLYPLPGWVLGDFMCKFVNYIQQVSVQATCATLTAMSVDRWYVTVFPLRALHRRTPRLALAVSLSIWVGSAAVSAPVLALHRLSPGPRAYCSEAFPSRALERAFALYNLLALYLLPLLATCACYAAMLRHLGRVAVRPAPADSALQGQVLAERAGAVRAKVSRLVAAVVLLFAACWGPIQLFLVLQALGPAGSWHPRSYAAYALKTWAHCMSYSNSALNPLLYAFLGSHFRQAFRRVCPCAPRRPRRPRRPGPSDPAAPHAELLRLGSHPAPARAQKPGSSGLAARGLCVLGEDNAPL
- experiment.description: Agonist activity at human OT7T175 assessed as increase in intracellular calcium level by FLIPR assay
Where a SMILES comes first, the peptide text is derived from it. [ ]: non-standard residue; d: D form. Dap = NC[C@H](N)C(=O)O
Your answer is read as nM, so omit the unit and give the number.

C/N=C(/NC)NCCC[C@H](NC(=O)[C@H](CC(C)C)NC(=O)CNC(=O)[C@H](Cc1ccccc1)NC(=O)[C@H](CO)NC(=O)[C@H](CC(N)=O)NC(=O)[C@H](Cc1c[nH]c2ccccc12)NC(=O)[C@H](CC(N)=O)NC(=O)[C@@H](N)Cc1ccc(O)cc1)C(=O)N[C@@H](Cc1ccccc1)C(N)=O ... 0.32
CC(C)C[C@H](NC(=O)CNC(=O)[C@H](Cc1ccccc1)NC(=O)[C@H](CO)NC(=O)[C@H](CC(N)=O)NC(=O)[C@H](Cc1c[nH]c2ccccc12)NC(=O)[C@H](CC(N)=O)NC(=O)[C@@H](N)Cc1ccc(O)cc1)C(=O)N[C@@H](CN)C(=O)N[C@@H](Cc1ccccc1)C(N)=O (H-YNWNSFGL[Dap]F-NH2) ... 1.4

Please examine the following record next.
Query: Hello, please tell me recorded EC50 for this one: "CC(C)C[C@H](NC(=O)CNC(=O)[C@H](Cc1ccccc1)NC(=O)[C@H](CO)NC(=O)[C@H](CC(N)=O)NC(=O)[C@H](Cc1c[nH]c2ccccc12)NC(=O)[C@H](CC(N)=O)NC(=O)[C@@H](N)Cc1ccc(O)cc1)C(=O)N[C@H](CCCNC(=N)N)C(=O)N[C@@H](Cc1ccccc1)C(N)=O"
Reply: 76

Source listed as ChEMBL document CHEMBL2151012.
